- Applied Conditions: 318.15 K; 101.33 kPa; Liquid; Vibrating tube method
Quantity: mass density (kg/m3)

> print(dat)
      smiles  value.reported
1     CC(C)O          763.19
2       NCCO          996.39
3    CC(C)CO          781.97
4      CCCCO           790.2
5  CC(C)(C)O          759.42
6        CCO          767.52
7       CCCO          783.17

* * *

- Applied Conditions: 298.15 K; 101.33 kPa; Liquid; Vibrating tube method
Quantity: mass density (kg/m3)

> print(dat)
                          compound      quantity  unit.annotation  value.reported
1                    CCO [ethanol]  mass density            kg/m3          785.13
2               CCCCO [butan-1-ol]  mass density            kg/m3          805.92
3               CCCO [propan-1-ol]  mass density            kg/m3          799.69
4  CC(C)(C)O [2-methylpropan-2-ol]  mass density            kg/m3          780.61
5    CC(C)CO [2-methyl-1-propanol]  mass density            kg/m3          797.99
6             CC(C)O [propan-2-ol]  mass density            kg/m3          780.91
7         NCCO [2-aminoethan-1-ol]  mass density            kg/m3         1012.53
